Reported Ki for target or system D(4) dopamine receptor (Homo sapiens) (UniProt P21917), by entry.
Field: numeric (µM). Do not append units.

Exam item: Ki lookup needed for COc1ccccc1N1CCN(CCCCCNC(=O)c2ccc3ccccc3c2)CC1 , thanks.
Marked response: 0.054

Exam item: So what's the measured Ki for this one? COc1ccccc1N1CCN(CCCCNS(=O)(=O)c2ccc3ccccc3c2)CC1
Marked response: 0.062

Exam item: Name the reported Ki value associated with the compound COc1ccccc1N1CCN(CCNS(=O)(=O)c2ccc3ccccc3c2)CC1
Marked response: 0.0244

* * *

Would you mind telling me the reported Ki of each entry?
Express the result in nM but write the number alone.

Exam item: Find the measured Ki: item COc1ccccc1N1CCN(CCNS(=O)(=O)c2ccc3ccccc3c2)CC1 , target or system D(3) dopamine receptor (Rattus norvegicus).
Marked response: 348

Exam item: Kindly state the measured Ki obtained for COc1ccccc1N1CCN(CCCCCNS(=O)(=O)c2ccc3ccccc3c2)CC1 with D(3) dopamine receptor (Rattus norvegicus).
Sequence (P19020 whole entry): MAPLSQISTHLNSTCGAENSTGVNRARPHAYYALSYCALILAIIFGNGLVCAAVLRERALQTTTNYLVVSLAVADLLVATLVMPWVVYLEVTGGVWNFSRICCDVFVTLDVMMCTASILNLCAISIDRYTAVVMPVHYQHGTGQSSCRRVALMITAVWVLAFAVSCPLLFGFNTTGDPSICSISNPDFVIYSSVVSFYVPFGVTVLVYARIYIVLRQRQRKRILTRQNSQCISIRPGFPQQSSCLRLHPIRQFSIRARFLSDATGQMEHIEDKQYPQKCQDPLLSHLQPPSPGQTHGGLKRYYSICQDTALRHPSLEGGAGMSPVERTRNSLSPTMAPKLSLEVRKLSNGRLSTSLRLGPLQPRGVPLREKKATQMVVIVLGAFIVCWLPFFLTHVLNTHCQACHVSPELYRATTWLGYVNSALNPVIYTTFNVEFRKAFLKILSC
Marked response: 84

Exam item: Look up Ki with D(3) dopamine receptor (Rattus norvegicus) for this molecule: COc1ccccc1N1CCN(CCCCCNC(=O)c2ccc3ccccc3c2)CC1
Marked response: 9.36

Exam item: Reported Ki for D(3) dopamine receptor (Rattus norvegicus), given COc1ccccc1N1CCN(CCCNC(=O)c2ccc3ccccc3c2)CC1 ?
Marked response: 71

* * *

- measured-on: D(3) dopamine receptor (Rattus norvegicus) (UniProt P19020)
pKi: −log10 of the molar value.
Please note: 1 applies when pKi is 7 or greater, and -1 applies otherwise.

Exam item: Dear colleague, could you confirm whether COc1ccccc1N1CCN(CCCCCNC(=O)c2ccc3ccccc3c2)CC1 has pKi at or above 7?
Marked response: 1

Exam item: Does the compound COc1ccccc1N1CCN(CCCNC(=O)c2ccc3ccccc3c2)CC1 have recorded pKi that is 7 or more?
Marked response: -1

Exam item: Say whether COc1ccccc1N1CCN(CCCCNS(=O)(=O)c2ccc3ccccc3c2)CC1 shows pKi of 7 or more.
Marked response: 1

Exam item: Does COc1ccccc1N1CCN(CCCCCNS(=O)(=O)c2ccc3ccccc3c2)CC1 have a reported pKi of at least 7?
Marked response: 1

* * *

attribute-measured: Ki (µM)
Just the number in µM, nothing appended.

Exam item: Please state recorded Ki (tested on D(2) dopamine receptor (Homo sapiens)) of COc1ccccc1N1CCN(CCCCCNC(=O)c2ccc3ccccc3c2)CC1
Sequence (P14416 whole entry): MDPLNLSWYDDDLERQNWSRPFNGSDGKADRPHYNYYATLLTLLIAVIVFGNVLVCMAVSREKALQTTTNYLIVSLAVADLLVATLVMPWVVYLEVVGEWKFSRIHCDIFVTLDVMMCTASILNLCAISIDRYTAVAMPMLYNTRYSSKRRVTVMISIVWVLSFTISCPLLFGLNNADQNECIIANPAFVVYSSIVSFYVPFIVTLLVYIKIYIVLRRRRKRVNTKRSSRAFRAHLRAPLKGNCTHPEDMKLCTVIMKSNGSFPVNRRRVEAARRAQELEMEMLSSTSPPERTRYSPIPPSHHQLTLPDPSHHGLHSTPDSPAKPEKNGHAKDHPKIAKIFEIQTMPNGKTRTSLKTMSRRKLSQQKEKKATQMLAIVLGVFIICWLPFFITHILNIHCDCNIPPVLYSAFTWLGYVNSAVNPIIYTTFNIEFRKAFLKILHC
Marked response: 0.254

Exam item: Tell me reported Ki for COc1ccccc1N1CCN(CCCCCCNS(=O)(=O)c2ccc3ccccc3c2)CC1 , tested with D(2) dopamine receptor (Homo sapiens).
Marked response: 0.099

Exam item: Notebook: pull reported Ki for D(2) dopamine receptor (Homo sapiens), entry COc1ccccc1N1CCN(CCCCCNS(=O)(=O)c2ccc3ccccc3c2)CC1
Marked response: 0.438

Exam item: What is its Ki for D(2) dopamine receptor (Homo sapiens)? Entry: COc1ccccc1N1CCN(CCCCNS(=O)(=O)c2ccc3ccccc3c2)CC1
Marked response: 0.0465

* * *

Answer each item with its documented Ki.

Exam item: For 5-hydroxytryptamine receptor 1A (Homo sapiens) (UniProt P08908), provide Ki of COc1ccccc1N1CCN(CCCNC(=O)c2ccc3ccccc3c2)CC1 please.
Marked response: 4.59 nM

Exam item: Write down the reported Ki of COc1ccccc1N1CCN(CCCCCNC(=O)c2ccc3ccccc3c2)CC1 , test system: 5-hydroxytryptamine receptor 1A (Homo sapiens) (UniProt P08908).
Sequence (P08908 whole entry, looked up): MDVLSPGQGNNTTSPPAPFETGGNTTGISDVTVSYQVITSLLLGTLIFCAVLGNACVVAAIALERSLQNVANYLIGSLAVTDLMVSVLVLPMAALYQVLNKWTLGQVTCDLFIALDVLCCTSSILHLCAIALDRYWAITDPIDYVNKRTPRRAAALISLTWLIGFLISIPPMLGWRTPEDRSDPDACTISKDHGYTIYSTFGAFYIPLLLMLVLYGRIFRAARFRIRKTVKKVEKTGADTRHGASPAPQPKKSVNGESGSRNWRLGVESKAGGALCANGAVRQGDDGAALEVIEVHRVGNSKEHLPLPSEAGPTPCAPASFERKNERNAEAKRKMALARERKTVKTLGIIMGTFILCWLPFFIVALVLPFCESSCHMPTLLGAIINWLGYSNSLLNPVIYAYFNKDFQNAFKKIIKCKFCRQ
Marked response: 11.1 nM
